Here the recorded zone of inhibition at 50 µg/disc is given for each entry.
- System: marine bacteria strain S30
- ASSAY: disc inhibition assay, strain S30
- Format: cell-based, Bacillus borophilicus
- STATED CONDITIONS: Bacillus, S30, 24 h

[in] I'm curious: which zone of inhibition at 50 µg/disc was measured for CN(C)C(=O)C(CC[N+]1(C)CCC(O)(c2ccc(Cl)cc2)CC1)(c1ccccc1)c1ccccc1 (stereo not shown) tested on marine bacteria strain S30?
[out] 2 to 5 mm

[in] I'm curious: which zone of inhibition at 50 µg/disc was measured for CN(C)C(=O)C(CCN1CCC(O)(c2ccc(Cl)cc2)CC1)(c1ccccc1)c1ccccc1 [LOP, loperamide, reference compound] tested on marine bacteria strain S30?
[out] 2 to 5 mm

[in] I'm curious: which zone of inhibition at 50 µg/disc was measured for COC1(c2ccc(Cl)cc2)CC[N+](C)(CCC(C(=O)N(C)C)(c2ccccc2)c2ccccc2)CC1 (stereo not shown) [Compound 5.2, N,O-dimethyl Loperamide] tested on marine bacteria strain S30?
[out] 5 to 10 mm

[in] I'm curious: which zone of inhibition at 50 µg/disc was measured for CC(=O)OC1(c2ccc(Cl)cc2)CCN(CCC(C(=O)N(C)C)(c2ccccc2)c2ccccc2)CC1 tested on marine bacteria strain S30?
[out] 2 to 5 mm

* * *

- Tested on: marine bacteria strain S4
- ASSAY: disc inhibition assay, strain S4
- Format: cell-based, Bacillus algicola
- STATED CONDITIONS: Guptibacillus algicola, S4, 24 h
ATTRIBUTE MEASURED: zone of inhibition at 50 µg/disc

Below, 3 compounds whose answers are already recorded.
[in] Endpoint output: zone of inhibition at 50 µg/disc of CN(C)C(=O)C(CC[N+]1(C)CCC(O)(c2ccc(Cl)cc2)CC1)(c1ccccc1)c1ccccc1 (stereo not shown) [Compound 4.7] . Value?
[out] 5 to 10 mm

[in] Endpoint output: zone of inhibition at 50 µg/disc of CC(=O)OC1(c2ccc(Cl)cc2)CCN(CCC(C(=O)N(C)C)(c2ccccc2)c2ccccc2)CC1 [Compound 5.3] . Value?
[out] 2 to 5 mm

[in] Endpoint output: zone of inhibition at 50 µg/disc of CN(C)C(=O)C(CCN1CCC(O)(c2ccc(Cl)cc2)CC1)(c1ccccc1)c1ccccc1 [LOP, loperamide, reference compound] . Value?
[out] 5 to 10 mm

New cases:
[in] Endpoint output: zone of inhibition at 50 µg/disc of COC1(c2ccc(Cl)cc2)CC[N+](C)(CCC(C(=O)N(C)C)(c2ccccc2)c2ccccc2)CC1 (stereo not shown) [Compound 5.2, N,O-dimethyl Loperamide] . Value?
[out] 5 to 10 mm

* * *

Here the recorded LD50 is given for each entry.
- Test system: Stage II nauplii of Balanus amphitrite
- ASSAY: barnacle toxicity assay
- Assay type: in vivo
- STATED CONDITIONS: Table 3(b); highest concentration tested 25 μg/ml

Below, 4 compounds whose answers are already recorded.
[in] Endpoint output: LD50 of CCCCCCC(C(=O)N1CCCCC1)c1ccccc1 (centres unmarked) [Compound 12.11] . Value?
[out] >25 µg/mL

[in] Endpoint output: LD50 of CCCCCCC(CCCCCC)C(=O)N1CCCCC1 [Compound 12.12] . Value?
[out] 0.2 to 1 µg/mL

[in] Endpoint output: LD50 of CCCCCCC(CCCC)C(=O)N1CCCCC1 (centres unmarked) [Compound 12.8] . Value?
[out] 3.35 µg/mL

[in] Endpoint output: LD50 of CCCCCCCCCCC(CCCCCCCC)C(=O)N1CCCCC1 (centres unmarked) [Compound 12.10] . Value?
[out] >25 µg/mL

Proceeding to the next compound to report its LD50.
[in] Endpoint output: LD50 of CCCCCCCCCCC(CCCC)C(=O)N1CCCCC1 (centres unmarked) [Compound 12.9] . Value?
[out] >25 µg/mL
